Consider the following compounds; for each one, report its remaining at 4 h, 263 µg/mL.
test: Degradation of apelin peptides by plasma from fasted normal NIH Swiss mice (rp-HPLC, MALDI-TOF MS); format: in vitro ADME; details: NIH Swiss, mouse, plasma, pH 7.4
Report only the number, with the unit % understood.

Input CCCCCCCCCCCCCCCC(=O)N[C@@H](CCC(=O)NCCCC[C@H](NC(=O)[C@H](Cc1c[nH]cn1)NC(=O)[C@H](CO)NC(=O)[C@H](CC(C)C)NC(=O)[C@H](CCCNC(=N)N)NC(=O)[C@@H]1CCCN1C(=O)[C@H](CCCNC(=N)N)NC(=O)[C@@H](N)CCC(N)=O)C(=O)NCC(=O)N1CCC[C@H]1C(=O)N[C@@H](CCSC)C(=O)N1CCC[C@H]1C(=O)N[C@@H](Cc1ccccc1)C(N)=O)C(=O)O [(Lys^8GluPAL)apelin-13-amide] , output reported remaining at 4 h, 263 µg/mL. 100

Input CSCC[C@H](NC(=O)[C@@H]1CCCN1C(=O)CNC(=O)[C@H](CCCCN)NC(=O)[C@H](Cc1c[nH]cn1)NC(=O)[C@H](CO)NC(=O)[C@H](CC(C)C)NC(=O)[C@H](CCCNC(=N)N)NC(=O)[C@@H]1CCCN1C(=O)[C@H](CCCNC(=N)N)NC(=O)[C@@H]1CCC(=O)N1)C(=O)N1CCC[C@H]1C(=O)N[C@H](C(=O)O)C(C)C , output reported remaining at 4 h, 263 µg/mL. 76.2

* * *

Assay: Degradation of apelin peptides by plasma from fasted normal NIH Swiss mice (rp-HPLC, MALDI-TOF MS)
Assay type: in vitro ADME
Details: NIH Swiss, pH 7.4; mouse plasma, estimated by linear regression of % intact peptide against time; read-out: Half-life (t1/2) (converted)
Text: Degradation of Apelin Peptides by Plasma from Fasted Normal NIH Swiss Mice […] […]
endpoint.label: half-life at 263 µg/mL

Input CSCC[C@H](NC(=O)[C@@H]1CCCN1C(=O)CNC(=O)[C@H](CCCCN)NC(=O)[C@H](Cc1cnc[nH]1)NC(=O)[C@H](CO)NC(=O)[C@H](CC(C)C)NC(=O)[C@H](CCCNC(=N)N)NC(=O)[C@@H]1CCCN1C(=O)[C@H](CCCNC(=N)N)NC(=O)[C@@H](N)CCC(N)=O)C(=O)N1CCC[C@H]1C(=O)N[C@@H](Cc1ccccc1)C(=O)O [Apelin-13, reference compound] , output reported half-life at 263 µg/mL. 2.1 h

* * *

Assay: Degradation of apelin peptides by plasma from fasted normal NIH Swiss mice (rp-HPLC, MALDI-TOF MS)
Type: in vitro ADME
Conditions: mouse, plasma
Source text: Degradation of Apelin Peptides by Plasma from Fasted Normal NIH Swiss Mice […] […]
endpoint.label: half-life (h)
Report only the number, with the unit h understood.

Input CSCC[C@H](NC(=O)[C@@H]1CCCN1C(=O)CNC(=O)[C@H](CCCCN)NC(=O)[C@H](Cc1c[nH]cn1)NC(=O)[C@H](CO)NC(=O)[C@H](CC(C)C)NC(=O)[C@H](CCCNC(=N)N)NC(=O)[C@@H]1CCCN1C(=O)[C@@H](N)CCCNC(=N)N)C(=O)N1CCC[C@H]1C(=O)N[C@@H](Cc1ccccc1)C(=O)O [Apelin-12, reference compound] , output reported half-life. 3.4

* * *

test: Degradation of apelin peptides by plasma from fasted normal NIH Swiss mice (rp-HPLC, MALDI-TOF MS); type: in vitro ADME; settings: NIH Swiss, pH 7.4; mouse plasma, 37° C., 4 h, mean ± SEM, 2 experiments; read-out: % intact peptide (4 h)
endpoint.label: remaining at 4 h, 263 µg/mL (%)
Report only the number, with the unit % understood.

Input CSCC[C@H](NC(=O)[C@@H]1CCCN1C(=O)CNC(=O)[C@H](CCCCN)NC(=O)[C@H](Cc1cnc[nH]1)NC(=O)[C@H](CO)NC(=O)[C@H](CC(C)C)NC(=O)[C@H](CCCNC(=N)N)NC(=O)[C@@H]1CCCN1C(=O)[C@H](CCCNC(=N)N)NC(=O)[C@@H](N)CCC(N)=O)C(=O)N1CCC[C@H]1C(=O)N[C@@H](Cc1ccccc1)C(=O)O [Apelin-13, reference compound] , output reported remaining at 4 h, 263 µg/mL. 25.4

* * *

test: Degradation of apelin peptides by plasma from fasted normal NIH Swiss mice (rp-HPLC, MALDI-TOF MS); type: in vitro ADME; conditions: NIH Swiss, mouse, plasma, pH 7.4
endpoint.label: remaining at 4 h, 263 µg/mL (%)
Report only the number, with the unit % understood.

Input CCCCCCCCCCCCCCCC(=O)N[C@@H](CCC(=O)NCCCC[C@H](NC(=O)[C@H](Cc1c[nH]cn1)NC(=O)[C@H](CO)NC(=O)[C@H](CC(C)C)NC(=O)[C@H](CCCNC(=N)N)NC(=O)[C@@H]1CCCN1C(=O)[C@H](CCCNC(=N)N)NC(=O)[C@@H](N)CCC(N)=O)C(=O)NCC(=O)N1CCC[C@H]1C(=O)N[C@@H](CCSC)C(=O)N1CCC[C@H]1C(=O)N[C@@H](Cc1ccc(O)cc1)C(=O)O)C(=O)O , output reported remaining at 4 h, 263 µg/mL. 100

Input CSCC[C@H](NC(=O)[C@@H]1CCCN1C(=O)CNC(=O)[C@H](CCCCN)NC(=O)[C@H](Cc1c[nH]cn1)NC(=O)[C@H](CO)NC(=O)[C@H](CC(C)C)NC(=O)[C@H](CCCNC(=N)N)NC(=O)[C@@H]1CCCN1C(=O)[C@H](CCCNC(=N)N)NC(=O)[C@@H](N)CCC(N)=O)C(=O)N1CCC[C@H]1C(=O)N[C@@H](Cc1ccc(O)cc1)C(=O)O , output reported remaining at 4 h, 263 µg/mL. 76.7

Input CSCC[C@H](NC(=O)[C@@H]1CCCN1C(=O)CNC(=O)[C@H](CCCCN)NC(=O)[C@H](Cc1cnc[nH]1)NC(=O)[C@H](CO)NC(=O)[C@H](CC(C)C)NC(=O)[C@H](CCCNC(=N)N)NC(=O)[C@@H]1CCCN1C(=O)[C@H](CCCNC(=N)N)NC(=O)[C@@H]1CCC(=O)N1)C(=O)N1CCC[C@H]1C(=O)N[C@@H](C)C(=O)O , output reported remaining at 4 h, 263 µg/mL. 74.4

Input CSCC[C@H](NC(=O)[C@@H]1CCCN1C(=O)CNC(=O)[C@H](CCCCN)NC(=O)[C@H](Cc1c[nH]cn1)NC(=O)[C@H](CO)NC(=O)[C@H](CC(C)C)NC(=O)[C@H](CCCNC(=N)N)NC(=O)[C@@H]1CCCN1C(=O)[C@H](CCCNC(=N)N)NC(=O)[C@@H](N)CCC(N)=O)C(=O)N1CCC[C@H]1C(=O)N[C@@H](C)C(=O)O [(Ala^13)apelin-13, reference compound] , output reported remaining at 4 h, 263 µg/mL. 70.5

Input CSCC[C@H](NC(=O)[C@@H]1CCCN1C(=O)CNC(=O)[C@H](CCCCN)NC(=O)[C@H](Cc1c[nH]cn1)NC(=O)[C@H](CO)NC(=O)[C@H](CC(C)C)NC(=O)[C@H](CCCNC(=N)N)NC(=O)[C@@H]1CCCN1C(=O)[C@H](CCCNC(=N)N)NC(=O)[C@@H](N)CCC(N)=O)C(=O)N1CCC[C@H]1C(=O)N[C@@H](Cc1ccccc1)C(N)=O [Apelin-13-amide] , output reported remaining at 4 h, 263 µg/mL. 80.4

* * *

Experiment: Degradation of apelin peptides by plasma from fasted normal NIH Swiss mice (rp-HPLC, MALDI-TOF MS)
Assay type: in vitro ADME
Conditions: NIH Swiss, mouse, plasma, pH 7.4
Description: Degradation of Apelin Peptides by Plasma from Fasted Normal NIH Swiss Mice […] […]
Where no end group is shown, it is not given here.
endpoint.label: remaining at 4 h, 263 µg/mL (%)
Report only the number, with the unit % understood.

Input LVQPRGSRNGPGPWQGGRRKFRRQRPRLSHKGPMPF [Apelin-36, reference compound] , output reported remaining at 4 h, 263 µg/mL. 5.5

* * *

Consider the following compounds; for each one, report its remaining at 4 h, 263 µg/mL.
Assay: Degradation of apelin peptides by plasma from fasted normal NIH Swiss mice (rp-HPLC, MALDI-TOF MS)
Assay type: in vitro ADME
Conditions: NIH Swiss, mouse, plasma, pH 7.4
Source text: Degradation of Apelin Peptides by Plasma from Fasted Normal NIH Swiss Mice […] […]
Report only the number, with the unit % understood.

Input CSCC[C@H](NC(=O)[C@@H]1CCCN1C(=O)CNC(=O)[C@H](CCCCN)NC(=O)[C@H](Cc1c[nH]cn1)NC(=O)[C@H](CO)NC(=O)[C@H](CC(C)C)NC(=O)[C@H](CCCNC(=N)N)NC(=O)[C@@H]1CCCN1C(=O)[C@H](CCCNC(=N)N)NC(=O)[C@@H]1CCC(=O)N1)C(=O)N1CCC[C@H]1C(=O)N[C@@H](Cc1ccc(O)cc1)C(=O)O [pGlu(Tyr^13)apelin-13, pGlu (Tyr^13)apelin-13] , output reported remaining at 4 h, 263 µg/mL. 79

Input CCCCCCCCCCCCCCCC(=O)N[C@@H](CCC(=O)NCCCC[C@H](NC(=O)[C@H](Cc1c[nH]cn1)NC(=O)[C@H](CO)NC(=O)[C@H](CC(C)C)NC(=O)[C@H](CCCNC(=N)N)NC(=O)[C@@H]1CCCN1C(=O)[C@H](CCCNC(=N)N)NC(=O)[C@@H]1CCC(=O)N1)C(=O)NCC(=O)N1CCC[C@H]1C(=O)N[C@@H](CCSC)C(=O)N1CCC[C@H]1C(=O)N[C@@H](Cc1ccccc1)C(N)=O)C(=O)O [pGlu(Lys^8GluPAL)apelin-13-amide] , output reported remaining at 4 h, 263 µg/mL. 100
